Please respond with reported pKd for every item in the list.
# assayed.system: T1, recombinant human activated Factor VII (FVIIa) (human, UniProt P08709 61-212; P08709 213-466, ten glutamate residues of the Gla domain may be gamma-carboxylated)
# T1 construct: chains tethered by a disulfide bond; also called Factor VIIa; rFVIIa
# T1 sequence 1: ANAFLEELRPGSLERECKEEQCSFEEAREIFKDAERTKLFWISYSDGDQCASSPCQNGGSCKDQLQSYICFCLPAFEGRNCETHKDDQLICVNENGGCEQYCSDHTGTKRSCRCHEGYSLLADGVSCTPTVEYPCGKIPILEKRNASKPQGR
# T1 sequence 2: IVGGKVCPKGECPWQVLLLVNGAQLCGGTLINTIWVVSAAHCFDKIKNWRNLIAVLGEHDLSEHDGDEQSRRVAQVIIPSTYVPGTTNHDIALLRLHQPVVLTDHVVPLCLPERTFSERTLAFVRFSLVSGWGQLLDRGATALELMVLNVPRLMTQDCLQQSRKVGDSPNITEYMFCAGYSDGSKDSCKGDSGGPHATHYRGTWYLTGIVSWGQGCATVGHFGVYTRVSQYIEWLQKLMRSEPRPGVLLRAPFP
# assay.procedure: BLI (Fortebio)
Numbers only, as −log10 of the molar value.

Past entries and their recorded results:
binder: VH SEQ ID NO 570 / VL SEQ ID NO 462 (antibody, IgG4, V domains shown, humanized 11F2; IgG4 S228P/kappa) VH: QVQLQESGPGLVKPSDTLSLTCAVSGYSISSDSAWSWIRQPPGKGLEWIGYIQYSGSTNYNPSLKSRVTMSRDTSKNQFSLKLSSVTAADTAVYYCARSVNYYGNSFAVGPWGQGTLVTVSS VL: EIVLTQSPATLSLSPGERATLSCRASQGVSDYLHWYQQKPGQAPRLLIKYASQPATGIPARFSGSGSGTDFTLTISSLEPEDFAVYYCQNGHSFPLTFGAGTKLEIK
pKd: 8.96

binder: VH SEQ ID NO 634 / VL SEQ ID NO 462 (antibody, IgG4, V domains shown, humanized 11F2; IgG4 S228P/kappa) VH: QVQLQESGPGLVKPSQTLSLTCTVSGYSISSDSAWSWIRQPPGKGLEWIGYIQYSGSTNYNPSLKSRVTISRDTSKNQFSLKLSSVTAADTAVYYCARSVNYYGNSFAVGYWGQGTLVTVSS VL: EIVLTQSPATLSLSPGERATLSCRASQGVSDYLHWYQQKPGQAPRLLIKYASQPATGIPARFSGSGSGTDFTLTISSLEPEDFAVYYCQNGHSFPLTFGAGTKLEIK
pKd: 8.92

binder: VH SEQ ID NO 562 / VL SEQ ID NO 406 (antibody, IgG4, V domains shown, humanized 11F2; IgG4 S228P/kappa) VH: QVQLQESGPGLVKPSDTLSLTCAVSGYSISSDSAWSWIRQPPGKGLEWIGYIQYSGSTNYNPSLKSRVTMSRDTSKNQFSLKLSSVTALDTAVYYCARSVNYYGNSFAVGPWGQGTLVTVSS VL: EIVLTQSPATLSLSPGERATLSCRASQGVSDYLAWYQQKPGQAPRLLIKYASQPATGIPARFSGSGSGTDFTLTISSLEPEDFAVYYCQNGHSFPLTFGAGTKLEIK
pKd: 8.11

binder: VH SEQ ID NO 514 / VL SEQ ID NO 502 (antibody, IgG4, V domains shown, humanized 11F2; IgG4 S228P/kappa) VH: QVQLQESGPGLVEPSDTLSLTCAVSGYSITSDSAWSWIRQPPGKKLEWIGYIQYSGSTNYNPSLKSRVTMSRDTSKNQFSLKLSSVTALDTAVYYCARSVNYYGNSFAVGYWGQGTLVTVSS VL: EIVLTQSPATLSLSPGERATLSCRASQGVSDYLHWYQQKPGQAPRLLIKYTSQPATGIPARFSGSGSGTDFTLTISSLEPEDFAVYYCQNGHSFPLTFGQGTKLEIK
pKd: 9.04

binder: VH SEQ ID NO 642 / VL SEQ ID NO 350 (antibody, IgG4, V domains shown, humanized 11F2; IgG4 S228P/kappa) VH: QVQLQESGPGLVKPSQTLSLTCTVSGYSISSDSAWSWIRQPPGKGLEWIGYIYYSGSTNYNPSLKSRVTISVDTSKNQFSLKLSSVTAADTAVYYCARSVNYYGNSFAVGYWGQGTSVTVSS VL: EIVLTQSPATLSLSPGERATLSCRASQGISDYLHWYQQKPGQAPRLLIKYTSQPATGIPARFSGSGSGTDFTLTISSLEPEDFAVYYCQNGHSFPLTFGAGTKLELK
pKd: 6.92

Report pKd for every entry below.
1. VH SEQ ID NO 578 / VL SEQ ID NO 462 (antibody, IgG4, V domains shown, humanized 11F2; IgG4 S228P/kappa) VH: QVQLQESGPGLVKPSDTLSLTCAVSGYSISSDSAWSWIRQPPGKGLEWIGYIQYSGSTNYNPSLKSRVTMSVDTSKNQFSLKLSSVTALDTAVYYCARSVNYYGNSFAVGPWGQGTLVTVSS VL: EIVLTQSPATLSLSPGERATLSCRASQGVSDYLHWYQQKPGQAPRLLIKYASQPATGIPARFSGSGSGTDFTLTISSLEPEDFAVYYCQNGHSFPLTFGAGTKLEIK
2. VH SEQ ID NO 642 / VL SEQ ID NO 478 (antibody, IgG4, V domains shown, humanized 11F2; IgG4 S228P/kappa) VH: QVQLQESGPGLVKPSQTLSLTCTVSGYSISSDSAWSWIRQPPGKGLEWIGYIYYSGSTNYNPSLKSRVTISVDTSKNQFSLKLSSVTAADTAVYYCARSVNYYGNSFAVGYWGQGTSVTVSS VL: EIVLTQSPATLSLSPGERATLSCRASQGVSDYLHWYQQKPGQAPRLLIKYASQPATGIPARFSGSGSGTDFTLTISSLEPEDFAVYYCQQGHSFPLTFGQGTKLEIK
3. VH SEQ ID NO 634 / VL SEQ ID NO 350 (antibody, IgG4, V domains shown, humanized 11F2; IgG4 S228P/kappa) VH: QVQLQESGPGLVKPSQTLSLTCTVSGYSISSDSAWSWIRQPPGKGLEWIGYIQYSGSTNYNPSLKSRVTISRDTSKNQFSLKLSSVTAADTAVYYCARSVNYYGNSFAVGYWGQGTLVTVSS VL: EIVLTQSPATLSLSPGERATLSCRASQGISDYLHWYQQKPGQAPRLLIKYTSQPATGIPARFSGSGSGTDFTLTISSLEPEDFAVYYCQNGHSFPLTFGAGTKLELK
4. VH SEQ ID NO 562 / VL SEQ ID NO 390 (antibody, IgG4, V domains shown, humanized 11F2; IgG4 S228P/kappa) VH: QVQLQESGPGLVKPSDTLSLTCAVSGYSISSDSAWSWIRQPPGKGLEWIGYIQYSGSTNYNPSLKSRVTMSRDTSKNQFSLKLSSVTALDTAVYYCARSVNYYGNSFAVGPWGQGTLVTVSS VL: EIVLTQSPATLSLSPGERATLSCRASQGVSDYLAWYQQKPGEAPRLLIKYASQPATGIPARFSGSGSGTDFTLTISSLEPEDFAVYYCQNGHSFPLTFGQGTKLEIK
5. VH SEQ ID NO 602 / VL SEQ ID NO 414 (antibody, IgG4, V domains shown, humanized 11F2; IgG4 S228P/kappa) VH: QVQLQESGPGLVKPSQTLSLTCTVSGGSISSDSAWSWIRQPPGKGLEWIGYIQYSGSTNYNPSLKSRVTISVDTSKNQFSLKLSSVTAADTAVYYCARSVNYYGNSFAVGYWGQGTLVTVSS VL: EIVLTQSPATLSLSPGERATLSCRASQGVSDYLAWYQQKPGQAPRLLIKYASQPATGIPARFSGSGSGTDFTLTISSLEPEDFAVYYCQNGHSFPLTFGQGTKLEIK

[7.57, 7.96, 8.92, 8.00, 6.51]

The measurements presented in this section are drawn from patent US20220064329A1.
